system: UV-DDB (DDB1-DDB2) (Homo sapiens, UniProt Q16531;Q92466 1-1140;1-427)
Sequence (Q16531 whole entry, chain 1 of 2): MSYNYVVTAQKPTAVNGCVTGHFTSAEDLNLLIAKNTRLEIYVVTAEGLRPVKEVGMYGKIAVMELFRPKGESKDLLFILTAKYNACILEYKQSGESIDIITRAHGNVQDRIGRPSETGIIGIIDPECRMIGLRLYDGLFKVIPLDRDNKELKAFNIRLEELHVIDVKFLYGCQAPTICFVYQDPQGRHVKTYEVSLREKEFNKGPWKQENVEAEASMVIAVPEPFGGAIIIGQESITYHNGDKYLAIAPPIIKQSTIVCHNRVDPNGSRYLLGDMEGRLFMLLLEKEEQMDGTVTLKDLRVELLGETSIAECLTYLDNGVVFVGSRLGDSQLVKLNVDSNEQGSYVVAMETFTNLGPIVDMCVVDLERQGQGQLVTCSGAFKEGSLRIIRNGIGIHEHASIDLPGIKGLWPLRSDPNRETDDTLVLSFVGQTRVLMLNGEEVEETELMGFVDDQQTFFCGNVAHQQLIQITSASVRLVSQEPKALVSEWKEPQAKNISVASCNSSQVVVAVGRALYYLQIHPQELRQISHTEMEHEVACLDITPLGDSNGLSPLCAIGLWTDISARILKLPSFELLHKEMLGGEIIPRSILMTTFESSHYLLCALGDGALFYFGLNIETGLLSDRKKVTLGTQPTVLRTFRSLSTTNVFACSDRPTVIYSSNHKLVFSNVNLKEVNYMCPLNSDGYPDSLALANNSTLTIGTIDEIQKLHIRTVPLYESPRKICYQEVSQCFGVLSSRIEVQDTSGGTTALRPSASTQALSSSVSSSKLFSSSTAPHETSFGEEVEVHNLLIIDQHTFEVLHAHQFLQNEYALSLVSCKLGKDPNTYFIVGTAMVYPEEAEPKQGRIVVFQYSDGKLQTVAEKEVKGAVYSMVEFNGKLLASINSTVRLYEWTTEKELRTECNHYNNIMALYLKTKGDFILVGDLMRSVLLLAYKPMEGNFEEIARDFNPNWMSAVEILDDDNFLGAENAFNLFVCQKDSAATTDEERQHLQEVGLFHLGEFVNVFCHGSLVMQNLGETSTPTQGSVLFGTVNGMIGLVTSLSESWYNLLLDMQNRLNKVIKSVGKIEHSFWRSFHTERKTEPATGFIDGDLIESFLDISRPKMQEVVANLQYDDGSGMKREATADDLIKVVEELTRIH
Sequence (Q92466 whole entry, chain 2 of 2): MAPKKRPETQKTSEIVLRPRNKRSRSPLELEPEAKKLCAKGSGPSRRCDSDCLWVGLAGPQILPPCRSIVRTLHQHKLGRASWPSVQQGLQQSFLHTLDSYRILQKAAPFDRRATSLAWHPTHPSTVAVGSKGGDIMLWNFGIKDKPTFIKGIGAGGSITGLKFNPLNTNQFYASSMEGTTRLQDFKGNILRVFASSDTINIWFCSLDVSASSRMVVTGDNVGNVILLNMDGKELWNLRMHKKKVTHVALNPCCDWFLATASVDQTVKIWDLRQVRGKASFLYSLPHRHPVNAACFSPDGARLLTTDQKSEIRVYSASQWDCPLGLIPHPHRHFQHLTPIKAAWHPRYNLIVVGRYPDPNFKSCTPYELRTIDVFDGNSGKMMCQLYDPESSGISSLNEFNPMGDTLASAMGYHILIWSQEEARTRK
assay text: EMSA; 4 nM DNA, no competitor; EMSA: 50 mM Tris-HCl pH 7.5, 100 mM NaCl, 0.1 mg/ml BSA, 1 mM DTT, 23°C, 45 min; DNA curtains: 10 mM Tris-HCl pH 8.0, 1 mM EDTA, 0.16% BSA, 1 mM DTT, 0-100 mM NaCl, 23°C
condition description: protein: recombinant; tags: 3xHA at N-terminus of DDB1 (1xFLAG removed by PreScission); copies: 1;1; label: 5'-FAM on strand 2; blunt

{"columns": ["binder", "Kd"],
 "data": [
  ["undamaged 39 bp DNA (λ-I3_Dup / λ-I3_comp_FAM) (dsDNA, 5'-phosphate on strand 1) DNA 1: TGCATGCGGCCGCTCTTCCCATGGTGCGATCGCTCTTCG DNA 2: CGAAGAGCGATCGCACCATGGGAAGAGCGGCCGCATGCA", "~26 nM"]
]}
